Molecular target: T1, human ST2L extracellular domain with C-terminal His6 tag (human, UniProt Q01638 19-328)
T1 construct: also called huST2L-ECD; ST2L-ECD
T1 sequence: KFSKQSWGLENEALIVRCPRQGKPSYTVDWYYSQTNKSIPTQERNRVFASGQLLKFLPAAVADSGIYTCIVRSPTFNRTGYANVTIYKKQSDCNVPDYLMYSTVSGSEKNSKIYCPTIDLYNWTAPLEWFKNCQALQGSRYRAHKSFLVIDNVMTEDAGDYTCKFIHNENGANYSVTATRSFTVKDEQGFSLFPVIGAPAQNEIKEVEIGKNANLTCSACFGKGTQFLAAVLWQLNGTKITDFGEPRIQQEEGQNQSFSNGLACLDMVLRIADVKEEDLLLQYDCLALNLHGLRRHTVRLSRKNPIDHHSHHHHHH
Assay: SPR, mAb captured, ST2L-ECD in solution

# Binder, Kd [nM]
rows = [
    ("ST2M48 (antibody, V domains shown, Phage-derived Fab converted to IgG) VH: EVQLVQSGAEVKKPGESLKISCKGSGYSFTSYWIGWVRQMPGKGLEWMGIIYPGDSYTRYSPSFQGQVTISADKSISTAYLQWSSLKASDTAMYYCARLSGRFDYWGQGTLVTVSS VL: EIVLTQSPATLSLSPGERATLSCRASQSVRDALAWYQQKPGQAPRLLIYFASNRATGIPARFSGSGSGTDFTLTISSLEPEDFAVYYCQQFNTWPITFGQGTKVEIK", 0.056),
    ("STLM62 (antibody, human IgG2, V domains shown, Mouse hybridoma C2494 cloned into human IgG2 background (STLM62); also called C2494) VH: EVQLQQSVAELVRPGASVKLSCTASAFNIKDDYMHWVKQRPEQGLEWIGRIDPAIGNTEYAPKFQDKATMTADTSSNTAYLQLSSLTSEDTAVYYCALGDFYAMDYWGQGTSVTVSS VL: ETTVTQSPASLSVATGEKVTIRCITNTDIDDVIHWYQQKPGEPPKLLISEGNTLRPGVPSRFSSSGYGTDFVFTIENTLSEDVADYYCLQSDNMLTFGAGTKLELK", 0.028),
    ("ST2M49 (antibody, V domains shown, Phage-derived Fab converted to IgG) VH: EVQLVQSGAEVKKPGESLKISCKGSGYSFTSYWIGWVRQMPGKGLEWMGIIYPGDSYTRYSPSFQGQVTISADKSISTAYLQWSSLKASDTAMYYCARIGGMFDYWGQGTLVTVSS VL: EIVLTQSPATLSLSPGERATLSCRASQSVANALAWYQQKPGQAPRLLIYKASNRATGIPARFSGSGSGTDFTLTISSLEPEDFAVYYCQQYYGWPITFGQGTKVEIK", 0.101),
]
